# MIC per entry
# Tested on: S. aureus
# test.details: MIC, Gram-positive bacteria: S. aureus (strains not named)
# Format: cell-based
# condition.description: Staphylococcus aureus, third unnamed S. aureus column (c7), read-out: Minimal Inhibitory Concentration (MIC) S. aureus
parameter: MIC

CC1=C\[C@@H](O)CC(=O)Cc2nc(co2)C(=O)N2CCC[C@@H]2C(=O)O[C@H]([C@@H](C)COC(=O)Nc2ccc(C(F)(F)F)cc2)[C@H](C)/C=C/C(=O)NC\C=C\1 | > 64 µg/mL
CC1=C\[C@@H](O)CC(=O)Cc2nc(co2)C(=O)N2CCC[C@@H]2C(=O)O[C@H]([C@@H](C)CN2CCC(N(C)C)CC2)[C@H](C)/C=C/C(=O)NC\C=C\1 | > 64 µg/mL
CC1=C\[C@@H](O)CC(=O)Cc2nc(c([Si](C)(C)C)o2)C(=O)N2CCC[C@@H]2C(=O)O[C@H](C(C)C)[C@H](C)/C=C/C(=O)NC\C=C\1 | > 64 µg/mL
